tested on: H1N1 A/Puerto Rico/08/1934 influenza virus; type: cell-based
measuredParameter: Fold Increase over Parental Antibody (fold)

INSERT INTO assay_data (molecule, endpointvalue) VALUES
  ('11729-HC-Cterm-LLQGA-10b (conjugate, left off: a dimerising Fc or GST) heavy: QVQLVQSGAEVKKSGSSVKVSCKASGGTFSSYAISWVRQAPGQGLEWMGGIIPIFGTPSYAQKFQDRVTITTDESTSTVYMELSSLRSEDTAVYYCARQQPVYQYNMDVWGQGTTVTVSSLLQGA VL: DIQMTQSPSSLSASVGDRVTITCRASQGIRNNLGWYQQKPLKAPKRLIYAASSLQSGVPSRFSGSGSGTEFTLTISSLQPEDFATYYCLQYNNYPWTFGQGTKVEIK', 6.96),
  ('11729-HC-Cterm-LLQGA-19C (conjugate, left off: a dimerising Fc or GST) heavy: QVQLVQSGAEVKKSGSSVKVSCKASGGTFSSYAISWVRQAPGQGLEWMGGIIPIFGTPSYAQKFQDRVTITTDESTSTVYMELSSLRSEDTAVYYCARQQPVYQYNMDVWGQGTTVTVSSLLQGA VL: DIQMTQSPSSLSASVGDRVTITCRASQGIRNNLGWYQQKPLKAPKRLIYAASSLQSGVPSRFSGSGSGTEFTLTISSLQPEDFATYYCLQYNNYPWTFGQGTKVEIK', 28.78),
  ('11729-HC-Cterm-LLQGA-19b (conjugate, left off: a dimerising Fc or GST) heavy: QVQLVQSGAEVKKSGSSVKVSCKASGGTFSSYAISWVRQAPGQGLEWMGGIIPIFGTPSYAQKFQDRVTITTDESTSTVYMELSSLRSEDTAVYYCARQQPVYQYNMDVWGQGTTVTVSSLLQGA VL: DIQMTQSPSSLSASVGDRVTITCRASQGIRNNLGWYQQKPLKAPKRLIYAASSLQSGVPSRFSGSGSGTEFTLTISSLQPEDFATYYCLQYNNYPWTFGQGTKVEIK', 15.76),
  ('11729-HC-Cterm-LLQGA-19a (conjugate, left off: a dimerising Fc or GST) heavy: QVQLVQSGAEVKKSGSSVKVSCKASGGTFSSYAISWVRQAPGQGLEWMGGIIPIFGTPSYAQKFQDRVTITTDESTSTVYMELSSLRSEDTAVYYCARQQPVYQYNMDVWGQGTTVTVSSLLQGA VL: DIQMTQSPSSLSASVGDRVTITCRASQGIRNNLGWYQQKPLKAPKRLIYAASSLQSGVPSRFSGSGSGTEFTLTISSLQPEDFATYYCLQYNNYPWTFGQGTKVEIK', 7.75);
